- System: NCI-H460 lung
Please reply with one of these outcomes: true (1) = active, false (0) = inactive

Known results for molecules:
smiles-notation	experimental-target	answer-label
c1cc[c]([Sn]([O]c2cccc3cccnc23)([c]2ccccc2)[c]2ccccc2)cc1	NCI-H460 lung	true (1)
Nc1cc2ccncc2c2ccccc12	NCI-H460 lung	false (0)

Lab note: next molecule to report on.
Request: Per the assay record, what outcome was assigned to Cn1ccnc1C(=O)/C=C/c1ccc(CC(=O)Nc2cc(F)c(F)c(F)c2)cc1 ?
Result: false (0)

---

- Tested on: HOP-92 NSCLC
- measurement-notes: NCI tumour cell line growth inhibition, 48 h; in the data active = GI50 below about 0.43 µM; inactive = the rest
Please reply with one of these outcomes: active, inactive

compound	experimental-target	answer-label
COc1ccc(C2C3=C(COC3=O)N(CCO)c3cc4c(cc32)CCC4)cc1OC (stereo unspecified)	HOP-92 NSCLC	inactive

Request: Per the assay record, what outcome was assigned to COc1cc2cc(Oc3ccc(NC(=O)Nc4cc(C(F)(F)F)cc(C(F)(F)F)c4)cc3)c(C)nc2cc1OCCN1CCCCC1 ?
Result: inactive

Request: Per the assay record, what outcome was assigned to NC(=S)c1cn(C2OC(CO)C(O)C2O)c2ncnc(N)c12 (stereo unspecified) ?
Result: active

Request: Per the assay record, what outcome was assigned to Cc1cncc2cccc(S(=O)(=O)N3CCCNC[C@@H]3C)c12 ?
Result: active

Request: Per the assay record, what outcome was assigned to N#CSc1cc(-c2nc3ccccc3o2)ccc1N ?
Result: inactive

Request: Per the assay record, what outcome was assigned to CCC[CH2][Sn]1([CH2]CCC)[O]N=Cc2ccccc2[O]1 ?
Result: inactive

---

- Tested on: RXF 393 renal
- measurement-notes: NCI tumour cell line growth inhibition, 48 h
measurement-kind: TGI (µM)
One number for each entry, in µM.

molecule	TGI [µM]
COc1ccc(C(=O)C(CN(C)C)c2ccccc2)cc1 (stereo unspecified)	3.1
Nc1cc2ccncc2c2ccccc12	29
CCn1c(-c2nonc2N)nc2c(C#CC(C)(C)O)ncc(OCC3CCNCC3)c21	7.28
Cc1c(-c2ccnc(N)n2)c2c(n1-c1ccccc1)C(=O)c1ccccc1C2=O	56.5
Nc1ccc(C(=O)N/C(=C\c2ccc3c(c2)OCO3)c2nc3ccc4c(c3[nH]2)C(=O)c2ccccc2C4=O)cc1	42.4

Please state TGI for every molecule in the list that follows.
1. Clc1ccc2c(NCCNc3nc(Cl)nc4ccccc34)ccnc2c1
2. CCN(Cc1cccc(C)c1)c1ccc(CO)c(Cl)c1

Result:
1: 3.37; 2: 21.9

---

I'd appreciate it if you could supply TGI values for the items below.
- Test system: A498 renal
- measurement-notes: NCI tumour cell line growth inhibition, 48 h

Example compounds with recorded TGI:
compound	experimental-target	TGI
O=C(Nc1ccc(Oc2cccc(Cl)c2)c(Cl)c1)c1cccnc1	A498 renal	4.68 µM
Clc1ccc2c(NCCNc3nc(Cl)nc4ccccc34)ccnc2c1	A498 renal	3.52 µM
Oc1[nH]c2ccccc2c1N=NC(=S)NCc1ccccn1	A498 renal	7.51 µM

Please state TGI for every compound in the list that follows.
1. CCOC(=O)/C=C/C(Br)=C(Br)/C=C/C(=O)OCC
2. O=C(N(C1=CCCC1)N(c1ccccc1)c1ccccc1)C(F)(F)F
3. O=C1/C(=C/c2ccc(Cl)cc2)COc2ccc(Br)cc21
4. CC(C)(CO)Nc1c(O)c2c(c(O)c1Cl)C(=O)C=CC2=O
5. CC1C/C(=C\c2ccc(O)c(O)c2)C(=O)/C(=C/c2ccc(O)c(O)c2)C1 (stereo not given)
6. Cc1cc(=O)oc2c(CN(CCCl)CCCl)c(O)ccc12
7. N#CC(N)(C(=O)C(=O)NCCCNC(=O)C(=O)C(N)(C#N)c1ccc(Cl)cc1)c1ccc(Cl)cc1 (stereo not given)

Result:
1: 74.3 µM; 2: > 100 µM; 3: > 100 µM; 4: 3.36 µM; 5: 12.8 µM; 6: > 100 µM; 7: > 100 µM

Please state TGI for every compound in the list that follows.
1. NC(=O)COc1ccc(Br)cc1Br
2. N#Cc1nc(C(=O)c2ccccc2)oc1N
3. O=C(CN1CCN(c2cc3c(cc2F)c(=O)c(C(=O)O)cn3C2CC2)CC1)Nc1ccc(C(=O)/C=C/c2ccccc2)cc1
4. O=C1CSC(c2cc3cc(Br)ccc3nc2Cl)N1c1ccc(F)c(Cl)c1 (stereo not given)

Result:
> 100 µM
> 100 µM
7.37 µM
> 50 µM

---

I'd appreciate it if you could supply TGI values for the items below.
- System: OVCAR-5 ovarian
- measurement-notes: NCI tumour cell line growth inhibition, 48 h

compound	measurement-kind	measurement
CCC[CH2][Sn]1([CH2]CCC)[O]N=Cc2ccccc2[O]1	TGI	3.08 µM
COC(=O)C1=C(C)NC(C)=C(C(=O)OC)C1c1ccccc1[N+](=O)[O-]	TGI	> 100 µM
CC(=O)O[C@H]1CC[C@]2(C=O)[C@H]3CC[C@]4(C)[C@@H](C5=CC(=O)OC5)CC[C@]4(O)[C@@H]3CC[C@]2(O)C1	TGI	1.87 µM

Please state TGI for every compound in the list that follows.
1. O=c1[nH]c(=O)c2c([nH]1)[nH]c1ccccc12
2. [O-][n+]1cc(SCc2ccccc2)ncc1SCc1ccccc1
3. CC(=O)c1nc(C#N)c(N)o1
4. Nc1nc(Cl)cc(NCC2CC(O)(CO)C2)n1 (configuration not stated)

Result:
1. > 100 µM
2. > 10 µM
3. > 100 µM
4. > 100 µM

---

- System: K-562 leukemia
- measurement-notes: NCI tumour cell line growth inhibition, 48 h
measurement-kind: TGI (µM)
Numbers only, in µM.

Example compounds with recorded TGI:
compound	result-units	measurement
CC1CN=C(N(C(=O)Nc2ccccc2)C2CCCCC2)S1 (stereo not given)	µM	73.2
Cc1c(-c2ccnc(N)n2)c2c(n1-c1ccccc1)C(=O)c1ccccc1C2=O	µM	25.5
c1ccc2c(Nc3ccc4c(c3)OCO4)c3ccoc3nc2c1	µM	27.8

Please state TGI for every compound in the list that follows.
1. CCOC(=O)C1=C(C)N(c2ccc(Cl)cc2)C2(O)C=CC(=O)C3C(=O)N(c4ccccc4)C(=O)C132 (stereo not given)
2. C=C1C(=O)O[C@H]2[C@H]1CC/C(COC(=O)c1ccc(Br)cc1)=C\CC[C@@]1(C)O[C@@H]21

Result:
[9.03, 10.3]

---

I'd appreciate it if you could supply TGI values for the items below.
- Tested on: UACC-257 melanoma
- measurement-notes: NCI tumour cell line growth inhibition, 48 h

molecule	TGI
CCOC(=O)CCN1C(=O)c2c(NC(=O)C(=O)O)cccc2S1(=O)=O	> 100 µM
Cc1nc2cccc(F)c2c(=O)n1-c1nnc(C2CC2)s1	> 10 µM
C=C1CC2C[C@H](OS(=O)(=O)c3ccc(C)cc3)C(C1)N2C (stereo partly drawn)	> 100 µM
C[C@@H]1CC[C@H]2C(CN(C)CC3=C(C(F)(F)F)O[C@@H]4O[C@@]5(C)CC[C@H]6[C@H](C)CC[C@@H]3[C@@]46OO5)=C(C(F)(F)F)O[C@@H]3O[C@@]4(C)CC[C@@H]1[C@]32OO4	> 51.1 µM
O=C(O)CNCc1c2ccccc2nc2ccccc12	> 94.9 µM

Please state TGI for every molecule in the list that follows.
1. Clc1cc(-c2csc(Cl)c2)cs1
2. COc1ccc(Cn2nc(OCc3ccccc3)c3cc([N+](=O)[O-])ccc32)cc1
3. C=C(C)[C@@H]1CC[C@@H]2C(=CC[C@]3(C)C([C@H](C)CC/C=C(/C)C(=O)O)CC[C@@]23C)[C@@]1(C)CCC(=O)O (stereo partly drawn)
4. O=C1CCc2c(sc3ncnc(Nc4cccc(Br)c4)c23)C1

Result:
1. > 100 µM
2. > 100 µM
3. 54.2 µM
4. 11.6 µM

Please state TGI for every molecule in the list that follows.
1. COc1cccc2c1C(=O)c1c(O)c3c(c(O)c1C2=O)C[C@@](O)(C(=O)CO)CC3OC1CC(NCCCCC(OC(C)=O)OC(C)=O)C(O)C(C)O1 (stereo partly drawn)
2. COc1ccc(C2=C(N)c3cc(OC)ccc3C2=O)cc1
3. CCc1cc2c(c3[nH]ccc13)[C@@H](C)C[C@H]2C
4. COc1ccc(C2C3=C(COC3=O)N(CCO)c3cc4c(cc32)CCC4)cc1OC (stereo not drawn)

Result:
["0.00798 µM", "> 100 µM", "39.9 µM", "> 50 µM"]

---

- Test system: 786-0 renal
- measurement-notes: NCI tumour cell line growth inhibition, 48 h
measurement-kind: TGI

Example compounds with recorded TGI:
compound	measurement-kind	measurement
CC1=CCC(=O)[C@]2(C)C(CC(=O)O)[C@]3(C)C4=C(C)C(c5ccoc5)C[C@@H]4O[C@@H]3[C@H](O)[C@@H]12 (some centres undefined)	TGI	> 100 µM
COc1ccc(OC)c([N+](=O)[O-])c1-c1nc2sc(C)cn2c1/C=N/N=C(N)N	TGI	> 100 µM
CN(C)/C=C/C(=O)c1cccc(C(=O)/C=C/N(C)C)n1	TGI	> 100 µM

Next item in the queue.
Request: Bench note: what TGI did CC(NC1=NCCO1)c1ccco1 (centres undefined) show?
Result: > 100 µM
